These entries and their values trace back to patent EP1619195A2.

test system: A549 (lung cancer); assay: cells; conditions: A549; 50% cell destroying lethal concentration
reportedMetric: log10(LC50) (log10 of the value in µg/mL)
Base-10 log of LC50, unit µg/mL.

Request: Entry CC(C)=CCCC1(C)C=Cc2c(O)c3c(c(CC=C(C)C)c2O1)OC12C(=CC4CC1C(C)(C)OC2(CC=C(C)C(=O)O)C4=O)C3=O (centres unmarked) [TSB-3, isogambogic acid] needs its log10(LC50) filled in; supply it.
Result: 0.68

Request: Entry CC(C)=CCc1c2c(c(O)c3c1OC14C(=CC5CC1C(C)(C)OC4(CC=C(C)C(=O)O)C5=O)C3=O)C=CC(C)(C)O2 (centres unmarked) [TSB-7, morellic acid] needs its log10(LC50) filled in; supply it.
Result: 0.53

Request: Entry CC(C)=CCc1c2c(c(O)c3c1OC14C(=CC5CC1C(C)(C)OC4(CC=C(C)C)C5=O)C3=O)C=CC(C)(C)O2 (centres unmarked) [TSB-8, desoxymorellin] needs its log10(LC50) filled in; supply it.
Result: 1.75

Request: Entry CC(C)=CCc1c2c(c(O)c3c1OC14C(=CC5CC1C(C)(C)OC4(CC=C(C)C(=O)O)C5=O)C3=O)C=CC(C)(C)O2 (centres unmarked) [TSB-2, isomorellic acid] needs its log10(LC50) filled in; supply it.
Result: 0.66

Lab note: next compound to report on.
Request: Entry CC(C)=CCc1c2c(c(O)c3c1OC14C(=CC5CC1C(C)(C)OC4(CC=C(C)CO)C5=O)C3=O)C=CC(C)(C)O2 (centres unmarked) [TSB-6, isomorellinol] needs its log10(LC50) filled in; supply it.
Result: 0.98
